TARGET_SYSTEM: HLA DRB1*1302 (human)
TEST_METHOD_NOTES: competition with 125I probe peptide, purified HLA
Field 'label' (enum: class 1 / class 0). Set to class 1 when IC50 is strictly under 70 nM; else class 0.

INSERT INTO measurements (binder, class_assignment) VALUES
  ('WKHMRLECAIYYKAR (modifications not checked) [HPV16.E2.033 HTL epitope]', 'class 0'),
  ('QRFHNIRGRWTGRCM (modifications not checked) [HPV16.E6.130 HTL epitope]', 'class 0'),
  ('TGRCIACWRRPRTET (modifications not checked) [HPV31.E6.132 HTL epitope]', 'class 0'),
  ('WKHIRLECVLMYKAR (modifications not checked) [HPV31.E2.033 HTL epitope]', 'class 1');
